Tested on: MS2 coat protein
Assay: apparent KD of MS2 coat protein; higher = weaker reporter binding
Settings: Eterna round: R107; input ligand: none
Catalogue of apparent KD of MS2 coat protein values
Recorded endpoint: apparent KD of MS2 coat protein (nM)

{"Sequence record": "AAAAUCCUACCUGAGGAUCACCCUGGUGAAGGAGCGCCCGAAAGGGCAGGUAGGUCGCACCUGAGGAUCACCCUGGUACCUAAAA [ArgAX 29 #DoubleMs2 #OpenEnded #AlternativeMS2]", "Numeric result": 70.6}
{"Sequence record": "AAGUAAACAUGAGCAAAGCUCAUGUGCGAAGGAGCGGCGGAAACGCCAGGUAGGUCGCGCACAUGAGCAUCAGCCAUGUGUGUCA [Omei Arginine B SS A v1]", "Numeric result": 37.9}
{"Sequence record": "CGCAACCCACAUGAGGAUCACCCAUGUGAAGGAGCGGCGAAUAAGCCAGGUAGGUCGCGCAUGAAUAAAUCAUGUAGGAAGCUAA [XArg-A 8 V1]", "Numeric result": 10.8}
{"Sequence record": "ACGUCAUGGAGAACGUGACGACUUGUCGAUACCAGUGUUUGAUAGCGCCCUUGGCAGCGAACAUGAGGAUCACCCAUGUCAAGGG [#11 SameState-TheophyllineA]", "Numeric result": 72.8}
{"Sequence record": "UGGAUAAGGGUAAAUAGGAUAAGUACAGAAGGAGCGCGAAUAAACGCAGGUAGGUCGCUGGACAUGAGGAUCACCCAUGUAAAUG [Same State Arginine A GF 22]", "Numeric result": 48.8}
{"Sequence record": "GGGCGAGUGGACCGGCGUGCUCCGCUCCGUCGAGGACCGGUACGGCCGCCACUCGACAUGAGGAUCACCCAUGUGCGAGCUCGCG [#1 Exclusion - Tryptophan A Attempt #14 (HarryS)]", "Numeric result": 77.5}
{"Sequence record": "UCGGGAACAUGAGGAUCACCCAUGUCAGAAGGAGCGCUGAGAGAAGCAGGUAGGUCGCUGACGCAGGAGCUCUCUUCCUGUACGC [#22 Exclusion - Arginine A]", "Numeric result": 33.8}
{"Sequence record": "AAACAACAUGAGGAUCACCCAUGUACCGAUACCAGCCAAAUAUAAGGCCCUUGGCAGCGGAGUAAAUCCGGAGGACAAUGGGUAA [Same State Theophylline A GF5]", "Numeric result": 39}
{"Sequence record": "UGUACUAUGUGAAGGAGCGAGAAUCCUACAUGAGGAUCACCCAUGUAACAGCGAAAGCUGACUCAGGUAGGUCGCACAUAGUACU [ArgBS - First try]", "Numeric result": 130}
{"Sequence record": "UCGUGUAUUUCGGAUACCAGUGAAAUCGAUACAUGAGGAUCACCCAUGUGAGAGGAUGUACACCCUUGGCAGCUGUAUAUAUCUG [fgfmullin]", "Numeric result": 29.1}
{"Sequence record": "UGUACAUAAUUAGGUUACCUAUGUACAGAAGGAGCGUCGAUGACGACAGGUAGGUCGCUGUUAACAUGAGGAUCACCCAUGUACA [Arg A Ex t4]", "Numeric result": 44.4}
